The measured values listed here are drawn from ChEMBL document CHEMBL4406859.

Assay: Cytotoxicity against human HELF cells assessed as minimum cytotoxic concentration by observing alteration in cell morphology incubated for 3 days by microscopic analysis
Assay type: cell-based
Details: 72 h
EXPERIMENTAL READOUT: MCC

Example compounds with recorded MCC:
COMPOUND	MCC
Nc1ccn(C[C@@H](CO)OCP(=O)(O)O)c(=O)n1 [CIDOFOVIR]	250 to 300 µM
O=c1[nH]c(=O)n([C@H]2C[C@H](O)[C@@H](CO)O2)cc1/C=C/Br [BRIVUDINE]	250 to 300 µM

Would you kindly look at the next entry?
Quick note, MCC for Nc1nc2c(ncn2COCCO)c(=O)[nH]1 [ACYCLOVIR] landed at 250 to 440 µM

====

Test system: SW-620
Experiment: Antiproliferative activity against human SW620 cells assessed as reduction in cell viability incubated for 72 hrs by MTT assay
Type: functional, cell-based
Settings: SW-620, 72 h
pIC50: −log10 of the molar value.
Give measured pIC50 for each item. Keep answers brief.

Solved cases below.
STRUCTURE	pIC50
O=C1O[C@H]([C@@H](O)Cn2cc(CCCCl)nn2)C(OCc2ccccc2)=C1OCc1ccccc1	4.16
COc1ccc(-c2cn(C/C=C3\OC(=O)C(OCc4ccccc4)=C3OCc3ccccc3)nn2)cc1	< 4.00
O=C1O[C@H]([C@@H](O)Cn2cc(-c3cc(F)cc(F)c3)nn2)C(OCc2ccccc2)=C1OCc1ccccc1	< 4.00

Let me check: O=C1O[C@H]([C@@H](O)CO)C(O)=C1O , system SW-620, measured pIC50 is < 4.00

====

Test: Cytotoxicity against dog MDCK cells assessed as minimum cytotoxic concentration by observing alteration in cell morphology incubated for 3 days by microscopic analysis
Type: cell-based, Canis lupus familiaris
EXPERIMENTAL READOUT: MCC at 72 h

MOLECULE	MCC at 72 h
CC(N)C12CC3CC(CC(C3)C1)C2 (stereo not given) [RIMANTADINE]	> 200 µM
O=C1O[C@H]([C@@H](O)Cn2ccnn2)C(OCc2ccccc2)=C1OCc1ccccc1	> 100 µM
NC12CC3CC(CC(C3)C1)C2 [AMANTADINE]	> 100 µM
CC(=O)N[C@H]1[C@H]([C@H](O)[C@H](O)CO)OC(C(=O)O)=C[C@@H]1N=C(N)N [ZANAMIVIR]	> 100 µM

The reported value for NC(=O)c1ncn([C@@H]2O[C@H](CO)[C@@H](O)[C@H]2O)n1 [RIBAVIRIN] in terms of MCC at 72 h is > 100 µM

====

Test system: HFF
Experiment: Cytotoxicity against human HFF cells assessed as reduction in cell viability incubated for 72 hrs by MTT assay
Format: cell-based
EXPERIMENTAL READOUT: pIC50
Numbers only, as −log10 of the molar value.

Field: example entries. Status: answers known.
STRUCTURE	pIC50
CC(C)(C)c1cn(C[C@H](O)[C@H]2OC(=O)C(OCc3ccccc3)=C2OCc2ccccc2)nn1	4.88
CCCCc1cn(C/C=C2\OC(=O)C(OCc3ccccc3)=C2OCc2ccccc2)nn1	4.31
O=C1O/C(=C\Cn2cc(CCCCl)nn2)C(OCc2ccccc2)=C1OCc1ccccc1	4.03
CC(C)(C)OC(=O)N1CCN(C(=S)SCc2cn(C[C@H](O)[C@H]3OC(=O)C(OCc4ccccc4)=C3OCc3ccccc3)nn2)CC1	7.22
O=C1O/C(=C\Cn2cc(CCO)nn2)C(OCc2ccccc2)=C1OCc1ccccc1	4.59

Your task in this section: give pIC50 for each listed record.
1. COc1ccccc1-c1cn(C[C@H](O)[C@H]2OC(=O)C(OCc3ccccc3)=C2OCc2ccccc2)nn1
2. O=C1O/C(=C\Cn2cc(C3CC3)nn2)C(OCc2ccccc2)=C1OCc1ccccc1
3. O=C1O[C@H]([C@@H](O)Cn2cc(CCCCl)nn2)C(OCc2ccccc2)=C1OCc1ccccc1

**A:**
[7.30, 4.77, 4.57]

List the reported pIC50 of each molecule below.
1. O=C1O[C@H]([C@@H](O)Cn2cc(-c3cccc(O)c3)nn2)C(OCc2ccccc2)=C1OCc1ccccc1
2. O=C1O[C@H]([C@@H](O)Cn2cc(CCO)nn2)C(OCc2ccccc2)=C1OCc1ccccc1

**A:**
1: 4.41; 2: 4.23
